pIC50: −log10 of the molar value.
Let's go through some recorded pIC50 values for COX-2 (Ovis aries, UniProt P79208) together.
reportedProperty: pIC50

molecule | pIC50
CC(C)(C)C1=NN(c2ccc(S(=O)(=O)O)cc2)C(c2ccc(F)cc2)C1 (stereo not drawn) [Compound 31] | 4.10

A: CC(C)(C)C1=NN(c2ccc(S(=O)(=O)O)cc2)C(c2ccc(Cl)cc2)C1 (stereo not drawn) [Compound 32]
B: CC(C)(C)C1=NN(c2ccc(S(N)(=O)=O)cc2)C(c2ccc(Cl)cc2)C1 (stereo not drawn) [Compound 33]
## Input Which record would sort first by descending pIC50, A or B ? Please respond with the label that marks your chosen entry.
## Output B

* * *

# targetDesc: human recombinant PDE5 (Homo sapiens)
# assayNotes: PDE5 inhibition, IMAP fluorescence polarization assay
reportedProperty: IC50 (µM)

The examples below pair each entry with its known result.
compound | IC50, µM
CC(C)(C)c1cc(-c2ccccc2)n(-c2ccc(C(=O)O)cc2)n1 | 18.9
CC(C)(C)C1=NN(c2ccc(S(=O)(=O)O)cc2)C(c2ccc(Cl)cc2)C1 (centres unmarked) | 8.7

A: CC(C)(C)C1=NN(c2ccc(C(=O)O)cc2)C(c2ccc(C#N)cc2)C1 (centres unmarked)
B: CC(C)(C)C1=NN(c2ccc(C(=O)O)cc2)C(c2ccc3ccccc3c2)C1 (centres unmarked)
C: CC(C)(C)C1=NN(c2ccc(C(=O)O)cc2)C(c2ccc(Cl)cc2)C1 (centres unmarked)
## Input Give the ascending ranking of the items by reported IC50. Labels, ranked as asked.
## Output C, A, B
(C: 3.3 µM, A: 13.8 µM, B: 21.8 µM)

* * *

# targetDesc: human recombinant PDE5 (Homo sapiens)
# assayNotes: PDE5 inhibition, IMAP fluorescence polarization assay
reportedProperty: IC50 (µM)

compound | IC50, µM
CC(C)(C)C1=NN(c2ccc(C(=O)O)cc2)C(c2ccc(-c3ccccc3)cc2)C1 (stereo not shown) | 35.6

1: CC(C)(C)C1=NN(c2ccc(C(=O)O)cc2)C(c2cccc([N+](=O)[O-])c2)C1 (stereo not shown)
2: CC(C)(C)C1=NN(c2ccc(C(=O)O)cc2)C(c2ccc(Br)cc2)C1 (stereo not shown)
## Input Please state the entry with greater IC50 among 1 and 2 . Respond with the label that goes with your answer.
## Output 2

* * *

# targetDesc: human recombinant PDE5 (Homo sapiens)
# assayNotes: PDE5 inhibition, IMAP fluorescence polarization assay
# Type: biochemical
# runConditions: read-out: PDE5 % inh at 50 (μM)
reportedProperty: inhibition at 50 µM (%)

Consider the following illustrative entries.
compound | reportedProperty | endpointResult
CC(C)(C)C1=NN(c2ccc(C(=O)O)cc2)C(c2ccc3ccccc3c2)C1 (centres unmarked) | inhibition at 50 µM | 80
CC(C)(C)C1=NN(c2ccc(C(=O)O)cc2)C(c2ccccc2F)C1 (centres unmarked) | inhibition at 50 µM | 86.3
CC(C)(C)c1cc(-c2ccc(F)cc2)n(-c2ccc(C(=O)O)cc2)n1 | inhibition at 50 µM | 75
CC(C)(C)C1=NN(c2ccc(C(=O)O)cc2)C(c2ccc(Cl)cc2)C1 (centres unmarked) | inhibition at 50 µM | 85
CC(C)(C)C1=NN(c2ccc(C(=O)O)cc2)C(c2ccco2)C1 (centres unmarked) | inhibition at 50 µM | 23.6
CC(C)(C)C1=NN(c2ccccc2C(=O)O)C(c2ccc(Cl)cc2)C1 (centres unmarked) | inhibition at 50 µM | 46
CC(C)(C)C1=NN(c2cccc(C(=O)O)c2)C(c2ccc(Cl)cc2)C1 (centres unmarked) | inhibition at 50 µM | 100
CC(C)(C)C1=NN(c2ccc(C(=O)O)cc2)C(c2ccc(Cl)c(Cl)c2)C1 (centres unmarked) | inhibition at 50 µM | 100

1: COc1ccc(C2CC(C(C)(C)C)=NN2c2ccc(C(=O)O)cc2)cc1 (centres unmarked)
2: Cc1ccc(-c2cc(C(F)(F)F)nn2-c2ccc(S(N)(=O)=O)cc2)cc1 [Celecoxib, celecoxib, reference compound]
3: CCOC(=O)c1ccc(N2N=C(C(C)(C)C)CC2c2cccc([N+](=O)[O-])c2)cc1 (centres unmarked)
4: CCOC(=O)c1ccc(N2N=C(C(C)(C)C)CC2c2ccc(Cl)cc2)cc1 (centres unmarked)
## Input # desc sort on inhibition at 50 µM across 4 compounds Answer by writing out the labels in the requested order.
## Output 1, 2, 3, 4

1: CC(C)(C)C1=NN(c2ccc(C(=O)O)cc2)C(c2ccccc2Br)C1 (centres unmarked)
2: CC(C)(C)C1=NN(c2ccc(S(N)(=O)=O)cc2)C(c2ccc(Cl)cc2)C1 (centres unmarked)
## Input Just curious, which one has the larger inhibition at 50 µM reading, 1 or 2 ? API: response body contains the label of the selected item.
## Output 1

* * *

# targetDesc: human recombinant PDE5 (Homo sapiens, UniProt O76074)
# assayNotes: PDE5 inhibition, IMAP fluorescence polarization assay
# Assay type: biochemical
# runConditions: read-out: PDE5 % inh at 50 (μM)
reportedProperty: inhibition at 50 µM (%)

compound | targetDesc | inhibition at 50 µM, %
CC(C)(C)C1=NN(c2ccc(C(=O)O)cc2)C(c2ccc(F)cc2)C1 (stereo not drawn) | human recombinant PDE5 (Homo sapiens, UniProt O76074) | 80

I: CC(C)(C)C1=NN(c2ccc(C(=O)O)cc2)C(c2ccc(C#N)cc2)C1 (stereo not drawn)
II: CC(C)(C)C1=NN(c2ccc(C(=O)O)cc2)C(c2cccs2)C1 (stereo not drawn)
## Input I'm curious whether I or II has the smaller inhibition at 50 µM number. Which is it? Respond using the label that marks the chosen record.
## Output II

* * *

# targetDesc: human recombinant PDE5 (Homo sapiens, UniProt O76074)
# assayNotes: PDE5 inhibition, IMAP fluorescence polarization assay
# Type: biochemical
# runConditions: read-out: PDE5 % inh at 50 (μM)
reportedProperty: inhibition at 50 µM (%)

compound | targetDesc | reportedProperty | endpointResult
CC(C)(C)C1=NN(c2ccc(S(=O)(=O)O)cc2)C(c2ccc(F)cc2)C1 (stereo not drawn) [Compound 31] | human recombinant PDE5 (Homo sapiens, UniProt O76074) | inhibition at 50 µM | 80
CC(C)(C)C1=NN(c2ccc(S(=O)(=O)O)cc2)C(c2ccc(Cl)cc2)C1 (stereo not drawn) [Compound 32] | human recombinant PDE5 (Homo sapiens, UniProt O76074) | inhibition at 50 µM | 85
CC(C)(C)C1=NN(c2ccc(C(=O)O)cc2)C(c2cccc(Cl)c2)C1 (stereo not drawn) [Compound 6] | human recombinant PDE5 (Homo sapiens, UniProt O76074) | inhibition at 50 µM | 95.7

* * *

# targetDesc: human recombinant PDE5 (Homo sapiens, UniProt O76074)
# assayNotes: PDE5 inhibition, IMAP fluorescence polarization assay
reportedProperty: IC50 (µM)

molecule | reportedProperty | endpointUnit | endpointResult
CC(C)(C)c1cc(-c2ccc(F)cc2)n(-c2ccc(C(=O)O)cc2)n1 | IC50 | µM | 31.3
CC(C)(C)C1=NN(c2ccc(C(=O)O)cc2)C(c2ccc(Cl)cc2Cl)C1 (stereo not drawn) | IC50 | µM | 2.7

I: CC(C)(C)C1=NN(c2ccc(C(=O)O)cc2)C(c2c(Cl)cccc2Cl)C1 (stereo not drawn)
II: CC(C)(C)C1=NN(c2ccc(S(=O)(=O)O)cc2)C(c2ccc(F)cc2)C1 (stereo not drawn)
III: CC(C)(C)C1=NN(c2ccc(C(=O)O)cc2)C(c2cccc(F)c2)C1 (stereo not drawn)
IV: CC(C)(C)C1=NN(c2ccc(S(N)(=O)=O)cc2)C(c2ccc(Cl)cc2)C1 (stereo not drawn)
## Input Order the records so the highest IC50 appears first and the lowest last. Put the labels in the requested order and write them down.
## Output IV, I, II, III
(IV: 48.7 µM, I: 28.8 µM, II: 9.3 µM, III: 3.7 µM)

* * *

# targetDesc: human recombinant PDE5 (Homo sapiens, UniProt O76074)
# assayNotes: PDE5 inhibition, IMAP fluorescence polarization assay
# Format: biochemical
# runConditions: read-out: PDE5 % inh at 50 (μM)
reportedProperty: inhibition at 50 µM (%)

compound | targetDesc | endpointResult
CC(C)(C)C1=NN(c2ccc(C(=O)O)cc2)C(c2cccc(Br)c2)C1 (stereo not drawn) | human recombinant PDE5 (Homo sapiens, UniProt O76074) | 91.4
CCOc1ccc(C2CC(C(C)(C)C)=NN2c2ccc(C(=O)O)cc2)cc1 (stereo not drawn) | human recombinant PDE5 (Homo sapiens, UniProt O76074) | 95.3
CC(C)(C)C1=NN(c2ccc(C(=O)O)cc2)C(c2cccc([N+](=O)[O-])c2)C1 (stereo not drawn) | human recombinant PDE5 (Homo sapiens, UniProt O76074) | 87.6

* * *

# targetDesc: human recombinant PDE5 (Homo sapiens, UniProt O76074)
# assayNotes: PDE5 inhibition, IMAP fluorescence polarization assay
# Assay type: biochemical
# runConditions: read-out: PDE5 % inh at 50 (μM)
reportedProperty: inhibition at 50 µM (%)

compound | inhibition at 50 µM, %
COc1ccc(C2CC(C(C)(C)C)=NN2c2ccc(C(=O)O)cc2)c(OC)c1 (stereo not drawn) | 85.8
CC(C)(C)C1=NN(c2ccc(C(=O)O)cc2)C(c2cccc(F)c2)C1 (stereo not drawn) | 94.4
CC(C)(C)C1=NN(c2ccc(C(=O)O)cc2)C(c2ccc(Br)cc2)C1 (stereo not drawn) | 88
CC(C)(C)C1=NN(c2ccc(C(=O)O)cc2)C(c2ccccc2Cl)C1 (stereo not drawn) | 100
CC(C)(C)C1=NN(c2ccc(C(=O)O)cc2)C(c2ccc(O)cc2)C1 (stereo not drawn) | 77.1

P: CC(C)(C)C1=NN(c2ccc(C(=O)O)cc2)C(c2ccc(Cl)cc2Cl)C1 (stereo not drawn)
Q: COc1ccccc1C1CC(C(C)(C)C)=NN1c1ccc(C(=O)O)cc1 (stereo not drawn)
## Input Sort P and Q by inhibition at 50 µM descending and give the first. # answer = label of selected item
## Output P

I: CC(C)(C)C1=NN(c2ccc(C(=O)O)cc2)C(c2ccccc2)C1 (stereo not drawn)
II: CCOc1ccccc1C1CC(C(C)(C)C)=NN1c1ccc(C(=O)O)cc1 (stereo not drawn)
## Input Rank I against II by their inhibition at 50 µM values and give the higher one. API: response body contains the label of the selected item.
## Output I

a: CC(C)(C)C1=NN(c2ccc(C(=O)O)cc2)C(c2ccc(-c3ccccc3)cc2)C1 (stereo not drawn)
b: COc1ccc(OC)c(C2CC(C(C)(C)C)=NN2c2ccc(C(=O)O)cc2)c1 (stereo not drawn)
## Input Quick one: lower inhibition at 50 µM, a or b ? Indicate which entry you chose by stating its label.
## Output b
